These data points were gathered from patent US20140056811A1.

Record form. Attribute: cytotoxicity at 1 h, 10 µM. Fill in for each entry.
assayOverview: In vitro cytotoxicity by LDH (lactate dehydrogenase) analysis
Assay type: cell-based
setupConditions: human; 5-FAM labeled peptides, 10 uM (also stated 10 ug/ml), 1 h, 37° C., HeLa cells; read-out: LDH % cytotoxicity
Peptide text beside a SMILES is read from it. * marks the point of attachment. 5FAM = O=C1OC2(c3ccc(O)cc3Oc3cc(O)ccc32)c2ccc(C(=O)*)cc21
Answer format: numeric, % implied, no suffix.

*Q* Provide cytotoxicity at 1 h, 10 µM value for the following molecule: CC(C)C[C@H](NC(=O)[C@H](Cc1ccccc1)NC(=O)c1ccc2c(c1)C(=O)OC21c2ccc(O)cc2Oc2cc(O)ccc21)C(=O)N[C@@H](CCCNC(=N)N)C(=O)N[C@@H](CCCNC(=N)N)C(=O)N[C@@H](CCCNC(=N)N)C(=O)N[C@@H](CCCNC(=N)N)C(=O)N[C@@H](CCCNC(=N)N)C(=O)N[C@@H](Cc1ccccc1)C(=O)N[C@H](C(=O)N[C@@H](CCCNC(=N)N)C(=O)N[C@@H](CCC(N)=O)C(=O)N[C@H](C(N)=O)[C@@H](C)O)[C@@H](C)O [S40, FLRRRRRFTRQT] (5FAM-FLRRRRRFTRQT-NH2)
*A* 8

*Q* Report cytotoxicity at 1 h, 10 µM, nothing else, for this molecule: CC(C)C[C@H](NC(=O)[C@H](CCCCN)NC(=O)[C@H](CCCCN)NC(=O)[C@H](CC(C)C)NC(=O)[C@@H](NC(=O)[C@H](CCCCN)NC(=O)[C@H](CCCCN)NC(=O)c1ccc2c(c1)C(=O)OC21c2ccc(O)cc2Oc2cc(O)ccc21)[C@@H](C)O)C(=O)N[C@@H](Cc1c[nH]c2ccccc12)C(=O)N[C@@H](CCCCN)C(=O)N[C@@H](CCCCN)C(=O)N[C@@H](CCCCN)C(=O)N[C@@H](CCCCN)C(=O)N[C@@H](CCCNC(=N)N)C(=O)N[C@@H](CCCCN)C(N)=O [S24, KKTLKKLWKKKKRK] (5FAM-KKTLKKLWKKKKRK-NH2)
*A* 10

*Q* In one line, give reported cytotoxicity at 1 h, 10 µM of the entry N=C(N)NCCC[C@H](NC(=O)[C@H](CCCNC(=N)N)NC(=O)[C@H](CCCNC(=N)N)NC(=O)[C@H](CCCNC(=N)N)NC(=O)[C@H](CCCNC(=N)N)NC(=O)[C@H](CCCNC(=N)N)NC(=O)[C@H](CCCNC(=N)N)NC(=O)[C@H](CCCNC(=N)N)NC(=O)[C@H](CCCNC(=N)N)NC(=O)c1ccc2c(c1)C(=O)OC21c2ccc(O)cc2Oc2cc(O)ccc21)C(N)=O [9R, RRRRRRRRR, reference compound] .
*A* 2

*Q* Could you please provide reported cytotoxicity at 1 h, 10 µM for N=C(N)NCCC[C@H](NC(=O)c1ccc2c(c1)C(=O)OC21c2ccc(O)cc2Oc2cc(O)ccc21)C(=O)N[C@@H](CCCNC(=N)N)C(=O)N[C@@H](CCCNC(=N)N)C(=O)N[C@@H](Cc1c[nH]cn1)C(=O)N[C@@H](CCC(N)=O)C(=O)N[C@@H](CCCNC(=N)N)C(=O)N[C@@H](CCCCN)C(=O)N[C@@H](Cc1ccc(O)cc1)C(=O)N[C@@H](CCCNC(=N)N)C(=O)N[C@@H](CCCNC(=N)N)C(=O)N[C@@H](Cc1ccc(O)cc1)C(N)=O [S36, RRRHQRKYRRY] (5FAM-RRRHQRKYRRY-NH2) ? Thanks!
*A* 3
